PROTOCOL NOTES: gradient 5% acetonitrile 3 min, to 50% in 2 min, to 85% in 15 min, held 3 min, 100 µL/min
EXPERIMENTAL CONDITIONS: column: Zorbax Extend-C18 2.1 x 50 mm; eluents: water / acetonitrile, 0.1% formic acid
Collected RP-LC retention time values appear next to each entry.
MEASURED METRIC: RP-LC retention time (s)

MOLECULE	READOUT VALUE
CCn1nccc1C(=O)N1CCN(c2cc(-c3ccc(Cl)cc3)[nH]n2)CC1	781
Cc1c(Cl)cccc1N1C(=O)CN(S(C)(=O)=O)CC1(C)C(=O)NCc1ccc(F)cc1 (stereo not given)	814
CCCCN(C)C(=O)c1ccc2c(c1)nc1n2CCN(C2CCCCC2)C1=O	786
COc1cc(-c2ccc(NC(=O)NC3CC3)c(OC)c2)ccc1NC(=O)NC1CC1	824
Cc1cccc(N2C(=O)CN(CCC(C)C)[C@H]3CS(=O)(=O)C[C@H]32)c1	811
